system: SN12C renal; assay: NCI-60 one-dose screen, 48 h; conditions: 10 µM unless noted
This is part of a sample that, as a whole, favours compounds with a hit. Of some 83,000 tested, about 20% had one in any assay. Active and inactive are the calls of the source. Rule for the calls: active = growth percent below 10; inactive = the rest.
One label from this list, please: true (active), false (inactive)

# molecule, labelValue
records = [
    ("CN(C)CCCC1(c2ccc(F)cc2)OCc2cc(-c3cncc4ccccc34)ccc21 (stereo not drawn)", "false"),
    ("O=C1Nc2ccccc2/C1=C\\c1nc(-c2ccccc2)n2ccccc12", "false"),
]

Data request: Please let me know the test result on file for CCc1ccc(C(=O)/C=C/C23c4ccccc4C(c4ccccc42)C2C(=O)NC(=O)C23)cc1 (stereo not drawn) .
Data returned: true

---

test system: A498 renal; experiment: NCI-60 one-dose screen, 48 h (100 = growth as untreated, 0 = no growth, -100 = all killed); conditions: 10 µM unless noted
About 83,000 compounds went through this panel and 20% of them were active in at least one assay; those are over-represented in the sample as a whole.
endpointLabel: growth (%)
Answers are plain numbers, in %.

# structureSmilesString, valueUnits, growth
data = [
    ("Cc1oc(-c2ccc(Cl)cc2)nc1/C=C/C(=O)c1ccccc1", "%", 101),
    ("Cn1c(O)c(C=NCCN=Cc2c(O)n(C)c(=O)n(C)c2=O)c(=O)n(C)c1=O", "%", 127),
    ("COC(=O)CNC(=O)[C@H](Cc1ccccc1)NCc1ccncc1", "%", 88.3),
]

Record growth for all entries; do not skip any.
1. CC(C)N1CCN(Cc2ccc3c(NNC(=O)c4ccccc4)nc4cc(F)ccc4n23)CC1
2. O=C(c1ccc(Cl)cc1)N1CCN(c2ccnc3cc(Cl)ccc23)CC1
3. Brc1ccc2[nH]cc(-c3nonc3-c3c[nH]c4ccccc34)c2c1

Data returned:
1. -15.8
2. 55.6
3. 43

---

test system: RXF 393 renal; assay: NCI-60 one-dose screen, 48 h; settings: 10 µM unless noted
About 83,000 compounds went through this panel and 20% of them were active in at least one assay; those are over-represented in the sample as a whole. Active and inactive are the calls of the source. Rule for the calls: active = growth percent below 10; inactive = the rest.
Your answer must be one of the following: active, inactive

Record excerpt, results attached:
# structureSmilesString, systemUnderTest, labelValue
data = [
    ("COC(=O)c1cc(-c2ccc(OC)cc2)[nH]c1N/N=C/c1c(Cl)cccc1Cl", "RXF 393 renal", "active"),
    ("O=C(Nc1cc(Cl)ccc1O)c1ccc(Nc2ccnc(C(F)(F)F)c2)cc1", "RXF 393 renal", "inactive"),
    ("O=C1/C(=C/c2ccc(F)cc2)COc2ccc(O)c(O)c21", "RXF 393 renal", "active"),
    ("CC(=O)OCc1nc(C#N)c(N(C)C)o1", "RXF 393 renal", "inactive"),
    ("COC(=O)[C@H]1CCCN1C[C@@H](O)CN1C(=O)/C(=C\\c2cc(OC)c(OC)c(OC)c2)c2ccccc21", "RXF 393 renal", "inactive"),
    ("CN1C(=O)/C(=C/c2cn(-c3ccccc3)nc2-c2ccccc2)SC1=S", "RXF 393 renal", "inactive"),
]

Data request: What outcome does the record of this test show for COc1ccc2cc(C(=O)c3coc4ccc(O)cc34)ccc2c1 ?
Data returned: inactive

Data request: Can you look up the reported call for O=Cc1ccc([N+](=O)[O-])s1 for me?
Data returned: inactive

Origin of values: PubChem BioAssay (NCI)
